B1: FBF1 (parent)
chain: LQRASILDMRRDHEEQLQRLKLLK

Variants of: B1
Assay: protein stability index of a GFP-peptide fusion (GPS, HEK-293T) (PSI 1-6); higher = more stable;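 also: lentivirally expressed fusions sorted by FACS into six bins by GFP to DsRed ratio, PSI derived from sequencing read proportions per bin multiplied by bin number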
Settings: c terminus: a fixed tail appended
Field: protein stability index. Provide a value for each of the variants that follow.

Input: Returns the measured protein stability index for the input variant. Input: D12R
Output: 3.05

Input: Which protein stability index value is on record for D8Q ?
Output: 3.07

Input: What does the record list as protein stability index for L23W ?
Output: 3

Input: Would you mind telling me what protein stability index value was observed for R10W ?
Output: 3.06

Input: protein stability index for R3V ?
Output: 2.92

Input: protein stability index lookup needed for A4Y , thanks.
Output: 2.96

Input: Fill blank: measured protein stability index of the variant E15S is ____.
Output: 2.96

Source of measurements: the supplement of paper PMC10567573
